Record form. Attribute: viability, T/C. Fill in for each entry.
Tested on: 292921-168-R-J2-PDC KRAS tumor spheroid viability;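 note: drug exposure lasted seven days after spheroids formed for three days; percent of DMSO vehicle control viability which is 100%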
Experiment notes: Anticancer human tumor 292921-168-R-J2-PDC patient-derived pancreatic carcinoma cell line growth inhibition [KRAS2]
Experimental parameters: second compound 1 µM; first compound 0.1 µM; stronger effect = lower value; spheroids with HUVEC and MSC
Numbers only, in %.

In the examples that follow, each entry is paired with its recorded viability, T/C.
Compound	viability, T/C (%)
O=C(c1cc(Cc2n[nH]c(=O)c3ccccc23)ccc1F)N1CCN(C(=O)C2CC2)CC1 + C=CC(=O)N1CCN(c2nc(=O)n(-c3c(C)ccnc3C(C)C)c3nc(-c4c(O)cccc4F)c(F)cc23)C(C)C1	72.3
CC(C)NCC(C(=O)N1CCN(c2ncnc3c2C(C)CC3O)CC1)c1ccc(Cl)cc1 (stereo not drawn) + C=CC(=O)N1CCN(c2nc(OCC3CCCN3C)nc3c2CCN(c2cccc4cccc(C)c24)C3)CC1CC#N	28.8

// moving on: another record for viability, T/C
Need viability, T/C of CC(C)NCC(C(=O)N1CCN(c2ncnc3c2C(C)CC3O)CC1)c1ccc(Cl)cc1 (stereo not drawn) + CNCc1ccccc1-c1csc(C(C)Nc2nc(C)nc3cc(OC)c(OC)cc23)c1 , thanks. 55.4
